Each record here notes measured melting point.

Given item N#Cc1cccc(N=C(NCC(=O)O)NCC2CCCCC2)c1 , the value recorded as its melting point is 80 to 83 °C

Entry under test: COC(=O)CN1CCC(NC(=O)OC(C)(C)C)CC1 . Its melting point was 96 to 98 °C

Lab note: COc1ccc(-c2nc(C)c(NC(C)=O)[nH]2)cc1 gave melting point of 202 to 204 °C

Lab book: melting point of CN1CCCC(n2nc(-c3c(-c4ccccc4)nn4ccccc34)ccc2=O)C1 (stereo not given) noted as 126 to 127 °C

CCCCCC(C(=O)c1ccccc1)C(=O)c1ccccc1 has a reported melting point of 68.5 to 69.5 °C
